# system.tested: efDHQase (3-dehydroquinate dehydratase from Enterococcus faecalis; also DEF) (Enterococcus faecalis, UniProt P36923)
# Construct: full-length aroD in modified pET-15b, N-terminal 10xHis tag removed with thrombin; homodimer; catalytic Lys170
# Sequence (P36923 1-253): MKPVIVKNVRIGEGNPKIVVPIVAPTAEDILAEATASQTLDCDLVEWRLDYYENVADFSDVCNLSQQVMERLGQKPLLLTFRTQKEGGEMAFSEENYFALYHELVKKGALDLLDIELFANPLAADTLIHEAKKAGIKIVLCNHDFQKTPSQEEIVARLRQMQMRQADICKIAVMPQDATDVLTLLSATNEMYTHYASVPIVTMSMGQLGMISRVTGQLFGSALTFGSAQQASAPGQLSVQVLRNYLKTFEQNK
# experiment: efSHD-coupled NADPH oxidation assay, […] nm
I'd be grateful if you could share measured pKi for these entries.
Numbers only, as −log10 of the molar value.

Solved entries:
1. O=c1c(O)c(-c2ccc(O)c(O)c2)oc2c(O[C@@H]3O[C@H](CO)[C@@H](O)[C@H](O)[C@H]3O)c(O)cc(O)c12 :: 4.10
2. O=c1cc(-c2ccc(O)c(O)c2)oc2cc(O[C@@H]3O[C@H](CO)[C@@H](O)[C@H](O)[C@H]3O)cc(O)c12 [Luteolin-7-glucoside] :: 4.16

API: the following record is the query input.
Would you kindly share the measured pKi for O=c1ccc2cc(O[C@@H]3O[C@H](CO)[C@@H](O)[C@H](O)[C@H]3O)c(O)cc2o1 ?
3.74

###

I'd be grateful if you could share measured pKi for these entries.
# system.tested: efDHQase (3-dehydroquinate dehydratase from Enterococcus faecalis; also DEF) (Enterococcus faecalis, UniProt P36923)
# Construct: full-length aroD in modified pET-15b, N-terminal 10xHis tag removed with thrombin; homodimer; catalytic Lys170
# experiment: efSHD-coupled NADPH oxidation assay, […] nm
Give bare numbers, as −log10 of the molar value.

Solved entries:
1. O=c1cc(-c2ccc(O)c(O)c2)oc2cc(O)c([C@@H]3O[C@H](CO)[C@@H](O)[C@H](O)[C@H]3O)c(O)c12 :: 3.85
2. O=c1ccc2ccc(O)cc2o1 [7-Hydroxycoumarin] :: 4.38
3. C[C@@H]1O[C@@H](OC[C@H]2O[C@@H](Oc3c(-c4ccc(O)c(O)c4)oc4cc(O)cc(O)c4c3=O)[C@H](O)[C@@H](O)[C@@H]2O)[C@H](O)[C@H](O)[C@H]1O :: 3.68
4. O=c1cc(-c2ccc(O)c(O[C@@H]3O[C@H](CO)[C@@H](O)[C@H](O)[C@H]3O)c2)oc2cc(O[C@@H]3O[C@H](CO)[C@@H](O)[C@H](O)[C@H]3O)cc(O)c12 [Luteolin-3′-7-diglucoside] :: 4.05
5. O=C(/C=C/c1ccc(O)c(O)c1)c1ccc(O[C@@H]2O[C@H](CO)[C@@H](O)[C@H](O)[C@H]2O)c(O)c1O :: 3.47

API: the following record is the query input.
Would you kindly share the measured pKi for C[C@@H]1O[C@@H](O[C@H]2[C@H](Oc3cc(O)c4c(=O)cc(-c5ccc(O)cc5)oc4c3)O[C@H](CO)[C@@H](O)[C@@H]2O)[C@H](O)[C@H](O)[C@H]1O ?
4.72
